B1: TPR t1 (parent)
chain: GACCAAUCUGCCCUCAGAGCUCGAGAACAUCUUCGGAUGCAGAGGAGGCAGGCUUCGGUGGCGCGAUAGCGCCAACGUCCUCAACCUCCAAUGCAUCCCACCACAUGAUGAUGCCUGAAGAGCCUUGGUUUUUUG

variants of: B1; assay: polymerase ribozyme fitness, log enrichment relative to wild type (log ratio); higher = more active; in vitro selection for triplet polymerase activity
Decide by polymerase ribozyme fitness (log ratio): equal to or exceeding -2 means MET, less means NOT MET.

mutations | answer-label
U21A G60U A90G | MET
G60A C124G | MET
C4G C49A | NOT MET
C8A C11A C22A U32G U33C C34A C40G C72U A100U C115U | NOT MET
C8A C72G C85A A111G U126C | MET

Could you verify whether the entry U87G G113C shows polymerase ribozyme fitness (log ratio) of no less than -2?
NOT MET

Determine whether measured polymerase ribozyme fitness (log ratio) meets or exceeds -2 for C73U U116C
MET

Textbook exercise: given the entry C20U C28A G93U G110C , state whether its polymerase ribozyme fitness (log ratio) is greater than or equal to -2.
NOT MET

Quick check: does U38G G39U U54G G69U U87A G113C have polymerase ribozyme fitness (log ratio) greater than or equal to -2?
NOT MET

Identify whether the reported polymerase ribozyme fitness (log ratio) of the following variant is -2 or greater: A16U G69U A121C
MET
